- target_of_assay: T1, APBA1_2, Q02410
- T1 sequence (Q02410 742-832, limits assumed, looked up): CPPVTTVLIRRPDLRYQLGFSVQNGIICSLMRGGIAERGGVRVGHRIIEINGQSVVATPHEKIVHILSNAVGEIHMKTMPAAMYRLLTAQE
- run_description: holdup assay
- Design: key: below the threshold = too weak to quantify, mostly under pKd 3.1 to 4
- measurement_conditions: plain residues with an end cap or a label only (N-terminal biotin on a linker: ahx)
This section presents binders with their documented pKd values.
Enter the number alone.

[[record]]
binder = "TVICWPGSLV [LNX2, Q8N448]"
recorded_measurement = 4.39

[[record]]
binder = "SDSSGQEYSL [KCTD3, Q9Y597]"
recorded_measurement = 3.65

[[record]]
binder = "GYDWGPATDL [TJP3, O95049]"
recorded_measurement = 4.17


Continue with the binder presented below.
Would you kindly share the measured pKd for RRRKRKRTYL [HPV49-L2, P36762] ?
3.98
